Each record here notes measured Ratio OD(Variant)/OD(WT).
- TARGET ENTITY: HRgpA-6H (Porphyromonas gingivalis) (UniProt P28784)
- MEASUREMENT PROTOCOL: ELISA, Fab FASEBA supernatant on coated HRgpA-6H

# annotated cases, reported Ratio OD(Variant)/OD(WT) shown
parental mouse (KB001) Fab FASEBA, VL variant A56T (Fab, V domains shown) VH: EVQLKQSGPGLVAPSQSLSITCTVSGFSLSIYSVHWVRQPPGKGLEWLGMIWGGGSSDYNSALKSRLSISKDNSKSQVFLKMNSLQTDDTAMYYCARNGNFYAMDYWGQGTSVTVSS VL: QIVLTQSPAIMSASLGERVTMTCTASSSVSSSFLHWYQQKPGSSPQLWIYSTSNLTSGVPARFSGSGSGTSYSLTISSMEAEDAATYYCHQYHHSPYIYTFGGGTKLEIK | 0.896 ratio to WT
parental mouse (KB001) Fab FASEBA, VL variant I98M (Fab, V domains shown) VH: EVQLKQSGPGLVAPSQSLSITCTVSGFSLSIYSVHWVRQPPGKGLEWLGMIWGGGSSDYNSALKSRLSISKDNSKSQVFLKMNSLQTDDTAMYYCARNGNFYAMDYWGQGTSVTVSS VL: QIVLTQSPAIMSASLGERVTMTCTASSSVSSSFLHWYQQKPGSSPQLWIYSTSNLASGVPARFSGSGSGTSYSLTISSMEAEDAATYYCHQYHHSPYMYTFGGGTKLEIK | 0.833 ratio to WT

Here's the next entry for you.
Report Ratio OD(Variant)/OD(WT) for parental mouse (KB001) Fab FASEBA, VL variant Y92D (Fab, V domains shown) VH: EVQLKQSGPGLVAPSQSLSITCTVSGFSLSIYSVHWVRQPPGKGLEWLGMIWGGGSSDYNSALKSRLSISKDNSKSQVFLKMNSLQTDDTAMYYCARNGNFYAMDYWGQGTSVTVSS VL: QIVLTQSPAIMSASLGERVTMTCTASSSVSSSFLHWYQQKPGSSPQLWIYSTSNLASGVPARFSGSGSGTSYSLTISSMEAEDAATYYCHQDHHSPYIYTFGGGTKLEIK please. 0.805 ratio to WT
